Cited source for all entries: PubChem BioAssay

Listed compounds paired with reported z-score
experiment: basal S. cerevisiae growth modulation, no modifier, primary screen, OD600, strain BY4716, 24 h, basal condition (AID 1173); conditions: OD600, 24 h, higher = more signal, called active from +8 up or from −8 down
Calls of active or inactive are those of the source.

- COMPOUND: "CCOC(=O)C[C@H]1[C@H](OC(=O)c2ccc(-c3ccccc3)cc2)[C@@H](NC(=O)c2ccccc2)c2cc(OCCCO)ccc2N1C(=O)c1ccccc1"
  z-score: "-1.34 (inactive)"
- COMPOUND: "NC(=O)NCC#Cc1ccc2c(c1)[C@]1(C(=O)N2)[C@H](c2ccc(OCCO)cc2)N2[C@H](c3ccccc3)[C@H](c3ccccc3)OC(=O)[C@H]2[C@@H]1C(=O)Nc1nc2ccccc2s1"
  z-score: "1.44 (inactive)"
- COMPOUND: "C=CCNC(=O)[C@@H]1[C@H]2C(=O)O[C@H](c3ccccc3)[C@H](c3ccccc3)N2[C@H](c2ccc(O)cc2)[C@@]12C(=O)Nc1ccccc12"
  z-score: "-0.146 (inactive)"
- COMPOUND: "CC1CC/C=C\\[C@H]2OC34C=CCN(C(C)C)C(=O)[C@H]3N(C(CO)C(C)C)C(=O)[C@@H]4C2C(=O)O1 (some centres undefined)"
  z-score: "-0.718 (inactive)"
